- system: T1, SETD3 residues 20–494 (as labelled for the ITC titrations) (human, UniProt Q86TU7 20-494)
- T1 construct: also called SETD3_(20–494)
- T1 sequence (looked up): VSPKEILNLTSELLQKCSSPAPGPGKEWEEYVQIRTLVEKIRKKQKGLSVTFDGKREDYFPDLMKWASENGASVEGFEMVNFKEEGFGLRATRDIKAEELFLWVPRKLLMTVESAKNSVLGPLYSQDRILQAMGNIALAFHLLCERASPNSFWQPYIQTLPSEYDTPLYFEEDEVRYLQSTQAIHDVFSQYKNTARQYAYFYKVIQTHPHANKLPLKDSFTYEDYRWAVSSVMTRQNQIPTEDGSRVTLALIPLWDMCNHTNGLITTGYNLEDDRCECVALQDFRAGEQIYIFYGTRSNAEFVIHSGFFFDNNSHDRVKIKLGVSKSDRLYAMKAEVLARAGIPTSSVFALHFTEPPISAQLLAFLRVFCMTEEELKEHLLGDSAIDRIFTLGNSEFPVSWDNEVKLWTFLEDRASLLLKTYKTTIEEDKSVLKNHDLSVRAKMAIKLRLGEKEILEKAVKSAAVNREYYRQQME
- assay.name: ITC; SETD3 titrated with actin peptide in the presence of SFG (sinefungin)
- condition.notes: both partners purified
Could you please report measured Kd for the items listed next?

- binder: "SKRGILTLKYPIEAGIVTNWDD (peptide, UniProt P60709 60-81, looked up, β-actin peptide with H73A; The limits 60-81 are those of the wild-type peptide; also called H73A actin peptide; H73A mutant peptide) [H73A mutant actin peptide]"
  Kd: "1 µM"

Proceed to the following item.
Record SKRGILTLKYPIEHGIVTNWDD (peptide, UniProt P60709 60-81, looked up, β-actin, residues 60-81; residues 66-81 were built in the structure; also called wild-type actin peptide) [β-actin peptide (60–81)] , field Kd: 5.01 µM
